# Subject of test: T1, ProQ (minimal ProQ, FinO domain with short N- and C-terminal extensions) (Neisseria meningitidis, UniProt Q9JY98 1-141)
# T1 sequence: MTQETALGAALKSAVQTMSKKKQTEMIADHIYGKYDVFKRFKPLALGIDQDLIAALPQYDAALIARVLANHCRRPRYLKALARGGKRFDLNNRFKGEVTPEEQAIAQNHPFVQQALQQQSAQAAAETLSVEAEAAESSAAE
# Assay: EMSA; max bound 81%; 25 mM Tris pH 7.5, 150 mM NaCl, 5% glycerol, 1 mM MgCl2, 1 nM 32P-RNA, ProQ up to 50 nM, 30 min at room temperature; 6% native gel at 4 C
# Assay setup: protein: recombinant; tags: N-terminal His6-TEV, cleaved; one extra N-terminal Ser remains; label: 5'-32P; terminator hairpin, GAAA loop
Parameter: pKd
Lab note: report pKd as minus log10 of the concentration in molar units, number only.

Problem: Tell me the measured pKd of GGGAUUUCAGUUUGAAAGCAAAGCCUCCGAGAAAUCGGAGGCUUUUUU (structured_RNA) [rpmG-loop] , please.
Solution: 9.30
